Test system: UACC-257 melanoma
Assay Overview: NCI tumour cell line growth inhibition, 48 h
Measured Endpoint: GI50

Challenge: Which GI50 reading was recorded for the molecule "Cn1cc(C2=C(c3cn(C)c4ncccc34)C(=O)NC2=O)c2ccccc21" ?
Response given: 12.8 µM

Challenge: What would you report for "Cc1ccc(C(=O)/C(=C/c2ccc([N+](=O)[O-])cc2)SCc2ccc(Cl)cc2)cc1" ?
Response given: 9.77 µM

Challenge: Please give the result for "NC(=O)c1sc(-n2cnc3ccccc32)cc1OCc1ccccc1Br" too.
Response given: 17.3 µM

Challenge: Param item: "O=C(Nc1ccccc1OC(F)(F)F)Nc1n[nH]c2ccccc12"
Response given: 47.2 µM

Challenge: Would you mind doing "CCCCCN(CCCCC)CCCNc1c2c(nc3ccc(Cl)cc13)CCCC2" as well?
Response given: 2.19 µM

###

Assign TGI to each entry below.
System: PC-3 prostate
Assay Overview: NCI tumour cell line growth inhibition, 48 h

Challenge: Can you share its TGI? I mean this compound: "COc1ccc2c(=O)c(O)c(-c3ccc(OC)c(OC)c3)oc2c1"
Response given: > 100 µM

Challenge: And for "Nc1cccc2cc(Cl)cnc12" ?
Response given: > 100 µM

Challenge: Field entry: "COc1cc(/C=C/C(=N\NS(=O)(=O)c2ccc(C)cc2)c2sc(NNC(C)=O)nc2C)ccc1O"
Response given: > 100 µM

Challenge: Another compound to check: O=C(O)CN(CC(=O)O)C1CCCCC1N(CC(=O)O)CC(=O)NCCN=C=S (stereo not given)
Response given: > 100 µM

Challenge: Another compound to check: "Cc1nc(C(N)=S)sc1/C(CC(=O)C(=O)Nc1cccc2ccc(O)cc12)=N\NC(=O)c1ccncc1"
Response given: > 100 µM

Challenge: Try the compound "Cc1ccsc1/C=N/Nc1ncccn1"
Response given: > 100 µM

Challenge: COC(=O)[C@H](Cc1c[nH]c2ccccc12)NP(=O)(O)OCC1C=CC(n2cc(C)c(=O)[nH]c2=O)O1 (stereo not given in full) , same question.
Response given: > 100 µM

Challenge: Repeat with COc1ccc(/C=C2\CCC(C)C3=C2NC(=S)NC3c2ccc(OC)c(OC)c2)cc1OC (stereo not given)
Response given: > 31.6 µM

Challenge: Here is the next compound: "CCC[C@@H](O)C[C@@H]1CCC[C@H](C[C@@H](O)CC)N1C"
Response given: > 100 µM

Challenge: Can you handle "O=C(CCC(=O)c1ccc(Cl)cc1)NO" next?
Response given: > 100 µM

Challenge: Next record, please: NC(Cc1c[nH]c2c(O)cccc12)C(=O)O (stereo not given)
Response given: > 100 µM

Challenge: Also check "O=C(Nc1ccccc1OC(F)(F)F)Nc1n[nH]c2ccccc12"
Response given: > 100 µM

Challenge: Now the same for CCCNC1=C2CC(C)CC(OC)[C@@H](O)[C@H](C)/C=C(\C)C(OC(N)=O)C(OC)/C=C\C=C(/C)C(=O)NC(=CC1=O)C2=O (stereo not given in full)
Response given: > 100 µM

Challenge: Follow-up entry: "O=S1(=O)NC(=NCc2c[nH]c3ccccc23)N(c2ccccc2)c2ccncc21"
Response given: > 100 µM

Challenge: Then what about the compound "Cc1ccccc1-n1c(=O)c2ncn(CCCl)c2n(-c2ccccc2C)c1=S" ?
Response given: > 100 µM

Challenge: Then "Cn1cc(C2=C(c3cn(C)c4ncccc34)C(=O)NC2=O)c2ccccc21" ?
Response given: > 25 µM

Challenge: For "FC(F)(F)c1cc(Cl)cnc1N/N=C(/c1ccccc1)c1ccccn1" then?
Response given: 89.7 µM

Challenge: Same read-out for "O=C1C(=Cc2ccc(O)cc2)N=C(c2ccccc2)N1n1c(-c2ccccc2)nc2ccccc2c1=O" ?
Response given: > 100 µM

Challenge: Similarly, CNC(=O)OCC1=C(COC(=O)NC)C(C)N(c2ccc(OC)cc2)C1 (stereo not given) ?
Response given: > 100 µM

Challenge: Continue with "c1ccc(N=C2SC3=Nc4cccc5cccc(c45)N3C2=Nc2ccccc2)cc1"
Response given: > 100 µM

Challenge: Also check "C=C(C1=CC(=O)C(C)(C)O1)[C@@H]1CC=C([C@@H]2CC[C@H]3[C@@]2(C)CC[C@H]2C(C)(C)C(=O)[C@H](O)C[C@]32C)[C@H](O)O1"
Response given: 2.68 µM

Challenge: Cool, now "COc1cc([C@@H]2c3cc4c(cc3[C@@H](Nc3ccc([N+](=O)[O-])cc3C(=O)c3ccccc3)[C@H]3COC(=O)[C@H]23)OCO4)cc(OC)c1OC"
Response given: > 100 µM

Challenge: Another compound: O=C1OCC(O)=C1C(c1ccc(Cl)cc1)c1cc2c(cc1O)OCO2 (stereo not given)
Response given: > 100 µM

Challenge: Another compound to look at: Cc1cn(C2CC(N(O)C(N)=O)C(CO)O2)c(=O)[nH]c1=O (stereo not given)
Response given: > 100 µM

Challenge: // same read-out, input: Nc1ccccc1SC(C[N+](=O)[O-])c1ccc2c(c1)OCO2 (stereo not given)
Response given: 20.6 µM

###

System: UACC-257 melanoma
Assay Overview: NCI tumour cell line growth inhibition, 48 h
Where a SMILES comes first, the peptide text is derived from it. [ ]: non-standard residue; d: D form. The star is where a group is joined. ξ: configuration not given here. X6 = FC(F)(F)c1cc(NC(=S)*)cc(C(F)(F)F)c1; ξF = NC(Cc1ccccc1)C(=O)O
# if value of TGI reaches 10 µM, tag yes (1); if it stays below, tag no (0)

Challenge: Dear colleague, could you confirm whether "CCCCCCCCCCCCCCCCCC(CCCCCCCCCCCCCCCCC)OP(=O)(O)O" has TGI at or above 10 µM?
Response given: yes (1)

Challenge: Item: "Cc1ccc(N=Nc2ccc(N(CCC#N)CCC#N)cc2C)c(Br)c1"
Response given: yes (1)

Challenge: Request: "CC1(C)N=C(/C(Cl)=[N+](/[O-])C(=O)c2ccc(F)cc2)C(C)(C)N1O"
Response given: yes (1)

Challenge: Proceed to "N#CCCN(CCC#N)c1ccc(/C=C2\N=C(c3cc([N+](=O)[O-])ccc3Cl)OC2=O)cc1"
Response given: yes (1)

Challenge: What do you have for "O=C1C(=O)N(c2ccc(Cl)cc2Cl)C(=O)C(=O)C1c1nc2ccccc2s1" ?
Response given: yes (1)

Challenge: Now try "C=C(CN1CCN(c2ccc(Cl)cc2F)CC1)c1ccc(C(=O)Nc2ccccc2N)cc1" .
Response given: yes (1)

Challenge: What about this compound? COC(=O)[C@@H](NC(=O)CNC(=O)[C@H]1CCCN1C(=O)C(Cc1ccccc1)NC(=S)Nc1cc(C(F)(F)F)cc(C(F)(F)F)c1)C(C)C (some centres not stated) (X6-[ξF][dP]GV-OMe)
Response given: no (0)

Challenge: How about this compound: "COc1cc(/C=N/NC(=O)c2ccc(C(F)(F)F)nc2Nc2ccc(Cl)cc2C)ccc1O"
Response given: yes (1)

Challenge: Now consider "Cc1ccc2c(=O)cc(-c3ccc(F)cc3)[nH]c2n1" and answer again.
Response given: yes (1)

Challenge: Input "O=C1/C(=C/c2ccccc2)CN(C(=O)C(Cl)(Cl)Cl)C/C1=C\c1ccccc1"
Response given: no (0)

Challenge: And then CN1C(=O)C(C)(C)C2(SC(C)(C)C2(C)C)N(C)C1=S (configuration not stated) , what is it?
Response given: yes (1)

Challenge: Same for N#CC1=C(N)N(c2ccccc2)C(c2ccco2)C1(C#N)C#N (configuration not stated)
Response given: yes (1)

###

System: SW-620 colon
Assay Overview: NCI tumour cell line growth inhibition, 48 h
We use 20 µM as the dividing line for TGI: on or above the line is satisfied, below is not satisfied.

Challenge: Determine whether measured TGI meets or exceeds 20 µM for CC1=CC2C(O1)C1C(=O)C=CC(=O)C1=CC2[N+](=O)[O-] (stereo unspecified)
Response given: satisfied

Challenge: Same question for "COc1ccc(C(=O)Cn2c(C(=O)c3ccccc3)nc(-c3ccc(OC)cc3)c2-c2ccc(OC)cc2)cc1" please.
Response given: satisfied

Challenge: Same question, "CC(=O)Nc1ccc(-c2nnc(SCC(=O)Nc3ccc([N+](=O)[O-])cc3)o2)cc1" this time
Response given: satisfied

Challenge: C=C(Br)C(C)(Cl)CCC(Br)C(C)(C)Cl (stereo unspecified) ?
Response given: satisfied

Challenge: Also, "COc1ccc2c(C3=C(c4cn(C)c5ccccc45)C(=O)NC3=O)cn(C)c2c1" please.
Response given: satisfied

Challenge: Do the same for Clc1cc(OC2C3CC4CC(C3)CC2C4)nc(Cl)n1 (stereo unspecified) please
Response given: satisfied

Challenge: # iterate: "COc1ccc2c(c1)/C(=C/c1c(C)nc3sc(C)nn13)C(=O)N2"
Response given: satisfied

Challenge: What do you have for "C#Cc1ccc(-n2c(/C=C/c3ccc(C(F)(F)F)cc3)nc3ncccc3c2=O)cc1" ?
Response given: not satisfied

Challenge: // next record "O=S(=O)(NC1=NCCN1C(=S)SN1CCn2c1nsc2=S)c1ccc(OC(F)(F)F)cc1"
Response given: satisfied

Challenge: Record: "COc1cc(/C=C/C(=N\NS(=O)(=O)c2ccc(C)cc2)c2sc(NNC(C)=O)nc2C)ccc1O"
Response given: satisfied

Challenge: Next entry: CCCCCN(CCCCC)CC(O)c1cc(C)c2ccc3cc(C(C)C)ccc3c2c1 (stereo unspecified)
Response given: not satisfied
